assay-comment: Metabolic intrinsic clearance in human hepatocytes
Assay type: in vitro ADME
test-context: cryopreserved hepatocytes in suspension, pH 7.5, 0.5 million cells/mL, incubation for 4 hours
reported-metric: hepatocyte CLint at 1 μM

smiles-representation | result
O=C(Nc1ccn(-c2ccnc(F)c2)n1)C1(c2ccccc2F)CC1 | ≤ 2.5 µL/min/1e6 cells

###

assay-comment: Blood exposure (AUC) in the 28-day oral dosing study in mice
Format: in vivo
test-context: ABCD1 knockout (KO), mouse, whole blood (dried blood spots); 8 mg/kg PO QD; read-out: Blood area under the concentration time-curve (AUC)
reported-metric: AUC

smiles-representation | reported-metric | result
O=C(Nc1ccn(-c2ccnc(F)c2)n1)C1(c2ccccc2F)CC1 | AUC | 3490 ng·h/mL
